From: patent US20170316147A1

- target entity: Bcl-2 (Homo sapiens, UniProt P10415, A37T/A38E/A42E/A43T/DEL46-86/G36R/G41E/P39A/P44E/P88R/P90T/S87E/V35N/V89E)
- Construct: made in house
- Sequence (P10415 with tags, fused parts or gaps with the stated changes): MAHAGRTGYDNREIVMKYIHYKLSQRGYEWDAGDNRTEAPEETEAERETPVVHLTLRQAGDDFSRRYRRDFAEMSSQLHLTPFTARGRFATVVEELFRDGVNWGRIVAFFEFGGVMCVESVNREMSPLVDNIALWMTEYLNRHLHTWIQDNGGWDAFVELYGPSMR
- test description: Differential static light scattering (aggregation temperature) of Bcl-2
- Format: binding
- particulars: DSLS thermal stability of Bcl-2; read-out: Kd from ΔTagg versus concentration, single binding site model
- Procedure: We also tested direct binding of CoA to recombinant Bcl-2 (see supporting information file PredTargets). […] DSLS measured by the Stargazer system (Harbinger Biotechnology and Engineering Corporation, Markham, Canada) was used to assess the thermal stability of Bcl-2 in the absence or presence of CoA and control ligands. […] Data were normalized and Kd values were calculated by plotting ΔTagg against the CoA concentration. […]
reported property: Kd

{"compound": "CC(C)(COP(=O)(O)OP(=O)(O)OC[C@H]1O[C@@H](n2cnc3c(N)ncnc32)[C@H](O)[C@@H]1OP(=O)(O)O)[C@@H](O)C(=O)NCCC(=O)NCCS [Coenzyme A]", "reported value": "320 µM"}
